- assayed.target: UniProt P05622
- Sequence (P05622 whole entry): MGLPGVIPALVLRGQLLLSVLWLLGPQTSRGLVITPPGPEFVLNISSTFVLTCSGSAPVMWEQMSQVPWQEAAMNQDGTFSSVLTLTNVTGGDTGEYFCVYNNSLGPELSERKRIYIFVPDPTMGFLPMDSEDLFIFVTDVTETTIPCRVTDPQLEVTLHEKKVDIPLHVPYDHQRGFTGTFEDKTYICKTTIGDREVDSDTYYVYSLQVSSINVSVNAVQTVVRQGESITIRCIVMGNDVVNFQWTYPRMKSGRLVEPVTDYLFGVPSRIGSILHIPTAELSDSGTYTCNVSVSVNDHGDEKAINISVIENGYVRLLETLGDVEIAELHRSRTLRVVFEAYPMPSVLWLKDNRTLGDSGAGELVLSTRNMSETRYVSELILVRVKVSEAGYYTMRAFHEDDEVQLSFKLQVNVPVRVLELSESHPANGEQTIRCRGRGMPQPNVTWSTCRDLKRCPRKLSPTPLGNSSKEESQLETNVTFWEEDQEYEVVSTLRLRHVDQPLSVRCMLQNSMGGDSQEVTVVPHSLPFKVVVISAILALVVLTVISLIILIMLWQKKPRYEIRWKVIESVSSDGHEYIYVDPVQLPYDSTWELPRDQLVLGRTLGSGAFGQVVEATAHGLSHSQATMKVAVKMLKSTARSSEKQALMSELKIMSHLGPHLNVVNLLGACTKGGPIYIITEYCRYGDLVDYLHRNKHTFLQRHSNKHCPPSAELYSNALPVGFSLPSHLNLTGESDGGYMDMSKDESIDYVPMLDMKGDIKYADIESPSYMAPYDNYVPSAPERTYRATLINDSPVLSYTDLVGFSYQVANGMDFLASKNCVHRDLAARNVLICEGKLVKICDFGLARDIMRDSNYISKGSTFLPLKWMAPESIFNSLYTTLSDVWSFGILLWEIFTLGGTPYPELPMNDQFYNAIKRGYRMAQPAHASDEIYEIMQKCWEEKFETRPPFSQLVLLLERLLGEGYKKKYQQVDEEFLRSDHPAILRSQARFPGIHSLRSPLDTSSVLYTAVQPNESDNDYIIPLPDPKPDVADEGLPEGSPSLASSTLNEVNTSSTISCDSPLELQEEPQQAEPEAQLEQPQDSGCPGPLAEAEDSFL
pIC50: −log10 of the molar value.
Some molecules, each annotated with its measured pIC50.

## Input Enter measured pIC50, system UniProt P05622, for the molecule shown: `COc1cc(OC)cc(-c2cc3cnc(NC(=O)C(F)(F)F)cc3nc2N)c1`
## Output < 4.30

###

Target or system UniProt:P05622: recorded pIC50 listed per item.
pIC50: −log10 of the molar value.

Worked examples, 4 molecules total:
[
  {
    "structure.notation": "COc1cc(OC)cc(-c2cc3cnc(NC(=O)NC(C)(C)C)cc3nc2NC(=O)NC(C)(C)C)c1",
    "pIC50": "< 4.30"
  },
  {
    "structure.notation": "COc1cc(OC)cc(-c2cc3cnc(N)cc3nc2N)c1",
    "pIC50": "< 4.30"
  },
  {
    "structure.notation": "CCNC(=O)Nc1nc2cc(N)ncc2cc1-c1cc(OC)cc(OC)c1",
    "pIC50": "< 4.30"
  },
  {
    "structure.notation": "Nc1cc2nc(N)c(-c3c(Cl)cccc3Cl)cc2cn1",
    "pIC50": 4.46
  }
]

With those in mind, consider the next molecule.
## Input Entry `COc1cc(OC)cc(-c2cc3cnc(N)cc3nc2NC(=O)Nc2ccccc2)c1` needs its pIC50 filled in; supply it.
## Output < 4.30
